Biological target: T1, Recombinant human OX40-His protein (human, UniProt P43489 29-214, limits assumed)
T1 construct: Recombinant antigen protein; also called recombinant human OX-40 protein; human OX-40 protein; not shown: His tag
T1 sequence (looked up): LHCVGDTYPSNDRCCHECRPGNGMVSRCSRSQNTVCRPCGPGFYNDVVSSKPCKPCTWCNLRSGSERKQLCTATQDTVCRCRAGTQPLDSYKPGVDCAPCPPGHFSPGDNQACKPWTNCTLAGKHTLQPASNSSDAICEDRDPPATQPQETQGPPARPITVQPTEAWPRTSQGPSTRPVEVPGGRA
Assay: SPR (Biacore 8K), OX40-HIS coupled to chip, antibody as analyte, 1:1 binding model
value-kind: kon (M⁻¹ s⁻¹)
Give the value, in units of M⁻¹ s⁻¹, as a plain number.

1. AH02922 humanized anti-human OX40 monoclonal antibody (recombinant human IgG1/kappa) (antibody, V domains shown) VH: QVQLVQSGAEVKKPGASVKISCKASGYTFTDYSMHWVRQAPGQRLEWMGWISTETGEPTYADDFKGRVTITRDTSASTAYMELSSLRSEDTAVYYCARVRPWYLVVWGQGTLVTVSS VL: DIQMTQSPSSLSASVGDRVTITCRASQDISNYLNWYQQKPGKAPKLLIYYTSRLYSGVPSRFSGSGSGTDYTLTISSLQPEDIATYYCQQANTLPLTFGGGTKLEIK	213000

Now take the following binder into account.
Inquiry: Any idea what kon was measured for AH02925 humanized anti-human OX40 monoclonal antibody (recombinant human IgG1/kappa) (antibody, V domains shown) VH: QVQLVQSGAEVKKPGASVKVSCKASGYTFTDYSMHWVKQAPGQGLEWMGWISTETGEPTYADDFKGRVTITRDTSASTAYLEISSLRSEDTAVYFCARVRPWYLAVWGQGTLVTVSS VL: DIQMTQSPSSLSASVGDRVTITCRASQDISNYLNWYQQKPGKAVKLLIYYTSRLYSGVPSRFSGSGSGTDFTLTISSLQPEDIATYYCQQANTLPLTFGGGTKLEIK ?
Reply text: 520000
